These data points were gathered from PubChem BioAssay.

Reported values of activity for individual entries
target: Tumor necrosis factor receptor superfamily member 10B (Homo sapiens) (UniProt O14763); assay: caspase-8 TRAIL sensitization, hit retest, confirmation, cell-based, NB7+caspase-8, with/without TRAIL, luminescence panel (AID 651596); details: NB7 neuroblastoma + caspase-8, TRAIL sensitization, luminescence viability, with TRAIL, mean of runs, at 10 µM, stronger effect = higher value
Sequence (O14763 whole entry, looked up): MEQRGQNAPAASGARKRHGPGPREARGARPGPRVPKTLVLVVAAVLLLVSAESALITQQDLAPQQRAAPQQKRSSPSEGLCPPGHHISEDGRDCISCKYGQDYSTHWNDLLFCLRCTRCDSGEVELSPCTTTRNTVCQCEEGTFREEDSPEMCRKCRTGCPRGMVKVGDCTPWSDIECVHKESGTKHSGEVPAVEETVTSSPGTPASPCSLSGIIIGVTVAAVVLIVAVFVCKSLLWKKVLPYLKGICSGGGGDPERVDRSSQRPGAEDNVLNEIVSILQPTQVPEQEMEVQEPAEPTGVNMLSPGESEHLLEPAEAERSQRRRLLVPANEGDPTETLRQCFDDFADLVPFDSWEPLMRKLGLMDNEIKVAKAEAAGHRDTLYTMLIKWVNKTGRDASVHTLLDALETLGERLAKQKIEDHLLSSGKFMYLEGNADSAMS

{"inputSmiles": "O=C(Oc1c(CN2CCOCC2)cc(Cl)c2cccnc12)c1cccs1", "assaySystem": "Tumor necrosis factor receptor superfamily member 10B (Homo sapiens) (UniProt O14763)", "activity / %": 53.1}
{"inputSmiles": "Cc1cc(NC(=O)/C=C/c2ccccc2Cl)n(-c2nc3ccccc3[nH]2)n1", "assaySystem": "Tumor necrosis factor receptor superfamily member 10B (Homo sapiens) (UniProt O14763)", "activity / %": 78.8}
{"inputSmiles": "CCOc1ccc2nc(NC(=O)CN3CCC(n4nnc5cc(C(F)(F)F)ccc54)CC3)sc2c1", "assaySystem": "Tumor necrosis factor receptor superfamily member 10B (Homo sapiens) (UniProt O14763)", "activity / %": 69}
{"inputSmiles": "Cc1ccnc(NC(=O)Nc2ccc3c(c2)OCO3)c1", "assaySystem": "Tumor necrosis factor receptor superfamily member 10B (Homo sapiens) (UniProt O14763)", "activity / %": 51}
{"inputSmiles": "N/C(=N\\OC(=O)c1ccc2ccccc2c1)c1ccccc1Cl", "assaySystem": "Tumor necrosis factor receptor superfamily member 10B (Homo sapiens) (UniProt O14763)", "activity / %": 99.4}
{"inputSmiles": "Cc1cccnc1NC(=O)c1sc2ccccc2c1Cl", "assaySystem": "Tumor necrosis factor receptor superfamily member 10B (Homo sapiens) (UniProt O14763)", "activity / %": 33.3}
{"inputSmiles": "Cc1ccc(-c2nc(NC(=O)c3nn(C)cc3[N+](=O)[O-])sc2C)cc1C", "assaySystem": "Tumor necrosis factor receptor superfamily member 10B (Homo sapiens) (UniProt O14763)", "activity / %": 98.1}
{"inputSmiles": "Cc1ccc2nc(-c3sc4nc(C)ccc4c3N)[nH]c2c1", "assaySystem": "Tumor necrosis factor receptor superfamily member 10B (Homo sapiens) (UniProt O14763)", "activity / %": 23.9}
{"inputSmiles": "N/C(=N\\OC(=O)COc1ccc(Cl)cc1Cl)c1ccccn1", "assaySystem": "Tumor necrosis factor receptor superfamily member 10B (Homo sapiens) (UniProt O14763)", "activity / %": 37}
{"inputSmiles": "CSc1nnc(NC(=O)c2nc(S(=O)(=O)Cc3ccccc3)ncc2Cl)s1", "assaySystem": "Tumor necrosis factor receptor superfamily member 10B (Homo sapiens) (UniProt O14763)", "activity / %": 83.6}
{"inputSmiles": "COc1ccc(-c2cc3ccc(F)cc3cn2)cc1", "assaySystem": "Tumor necrosis factor receptor superfamily member 10B (Homo sapiens) (UniProt O14763)", "activity / %": 66.5}
{"inputSmiles": "C/C(=N\\NC(=O)c1ccc(Cl)cc1)c1ccccn1", "assaySystem": "Tumor necrosis factor receptor superfamily member 10B (Homo sapiens) (UniProt O14763)", "activity / %": 32.2}
{"inputSmiles": "CC(=C/c1ccccc1)/C=N/NC(=O)c1ccccn1", "assaySystem": "Tumor necrosis factor receptor superfamily member 10B (Homo sapiens) (UniProt O14763)", "activity / %": 87.2}
{"inputSmiles": "O=C(Nc1ccccc1)c1nc[nH]c1C(=O)Nc1ccccc1F", "assaySystem": "Tumor necrosis factor receptor superfamily member 10B (Homo sapiens) (UniProt O14763)", "activity / %": 62}
{"inputSmiles": "CCCCCCCCCCCCCCC[C@@H](O)[C@@H](N)CO", "assaySystem": "Tumor necrosis factor receptor superfamily member 10B (Homo sapiens) (UniProt O14763)", "activity / %": 84.5}
{"inputSmiles": "CC(C)CC(=O)Nc1ccc(-c2cn3ccsc3n2)cc1", "assaySystem": "Tumor necrosis factor receptor superfamily member 10B (Homo sapiens) (UniProt O14763)", "activity / %": 85.2}
{"inputSmiles": "Cc1cc(C)c(C#N)c(SCc2nc3ccccc3c(=O)[nH]2)n1", "assaySystem": "Tumor necrosis factor receptor superfamily member 10B (Homo sapiens) (UniProt O14763)", "activity / %": 82.8}
{"inputSmiles": "Cc1ccc(N=Cc2c(C)[nH]n(-c3nc4ccccc4[nH]3)c2=O)cc1", "assaySystem": "Tumor necrosis factor receptor superfamily member 10B (Homo sapiens) (UniProt O14763)", "activity / %": 88.6}
{"inputSmiles": "COc1ccc(-c2nc(-c3ccc(NC(=O)c4ccncc4)cc3)no2)cc1OC", "assaySystem": "Tumor necrosis factor receptor superfamily member 10B (Homo sapiens) (UniProt O14763)", "activity / %": 70.5}
{"inputSmiles": "Cc1ccc(-c2cc(C(=O)N3CCCC3)no2)cc1", "assaySystem": "Tumor necrosis factor receptor superfamily member 10B (Homo sapiens) (UniProt O14763)", "activity / %": 73.3}
{"inputSmiles": "CC(C)(C)C(=O)N1CCc2cc(-c3csc(N)n3)ccc21", "assaySystem": "Tumor necrosis factor receptor superfamily member 10B (Homo sapiens) (UniProt O14763)", "activity / %": 91.8}
{"inputSmiles": "O=C(CCl)Nc1cccc(Oc2ccccc2)c1", "assaySystem": "Tumor necrosis factor receptor superfamily member 10B (Homo sapiens) (UniProt O14763)", "activity / %": 97.7}
{"inputSmiles": "Cc1ccc(NC(=O)c2ccc(C)cc2)cc1", "assaySystem": "Tumor necrosis factor receptor superfamily member 10B (Homo sapiens) (UniProt O14763)", "activity / %": 64.9}
{"inputSmiles": "CC1(C)Cc2c(sc(NC(=O)COc3cccc4ccccc34)c2C#N)C(C)(C)N1", "assaySystem": "Tumor necrosis factor receptor superfamily member 10B (Homo sapiens) (UniProt O14763)", "activity / %": 85.3}
{"inputSmiles": "COc1cc2c3nnc(-c4ccc(F)cc4)c-3cn(Cc3cccc(C)c3)c2cc1OC", "assaySystem": "Tumor necrosis factor receptor superfamily member 10B (Homo sapiens) (UniProt O14763)", "activity / %": 48.9}
{"inputSmiles": "C/C(=N/NC(=O)c1ccccn1)c1ccco1", "assaySystem": "Tumor necrosis factor receptor superfamily member 10B (Homo sapiens) (UniProt O14763)", "activity / %": 35.1}
{"inputSmiles": "Cn1c(=O)[nH]c(=O)c2c1nc([N+](=O)[O-])n2Cc1ccccc1", "assaySystem": "Tumor necrosis factor receptor superfamily member 10B (Homo sapiens) (UniProt O14763)", "activity / %": 60.5}

====

assay: activators of apoptotic CHOP UPR arm, confirmation, cell-based, CHO-CHOP luciferase reporter, single concentration (AID 463112); settings: CHO-CHOP cells, CHOP-luciferase reporter luminescence; at 10 µM; percent of tunicamycin response, DMSO as zero;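 further: 0% = DMSO wells and 100% = tunicamycin 10 µg/mL wells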
The list shows a part of the results. Activity calls are given as the source filed them. No stated cut-off is given here; in the data, active means activation above about 33%; inactive means the rest.
Classes used: class 1 (active), class 0 (inactive)

{"compound": "CN(C)CCCn1c(SCc2ccc(Cl)cc2)nnc1-c1ccncc1", "className": "class 0"}
{"compound": "COc1ccccc1N=Cc1c(O)c2ccccc2oc1=O", "className": "class 1"}
{"compound": "COC(=O)c1ccc(C(=O)Nc2cc(Cl)ccc2Cl)cc1NC(=O)c1ccccc1C", "className": "class 0"}
{"compound": "OCCNc1nc(Nc2ccc(Cl)c(Cl)c2)nc2ccccc12", "className": "class 1"}
{"compound": "Cc1c(NC(=O)CSc2cccc3cccnc23)c(=O)n(-c2ccccc2)n1C", "className": "class 1"}
{"compound": "COc1ccc2c(c1OC)C(=O)OC2Nc1nc(-c2ccccc2)cs1 (stereo not given)", "className": "class 0"}
{"compound": "CC1CC2=C(CC1/C=N/NC(N)=S)C(C)(C)CCC2 (stereo not given)", "className": "class 0"}
{"compound": "CCCCCC(=O)Nc1ccc(C(=O)N/N=C/c2ccc([N+](=O)[O-])cc2)cc1", "className": "class 1"}
{"compound": "O=C(CCl)Nc1cccc(CP(=O)(c2ccccc2)c2ccccc2)c1", "className": "class 1"}
{"compound": "C=CS(=O)c1sc(Cl)c(N2CCOCC2)c1[N+](=O)[O-] (stereo not given)", "className": "class 0"}
{"compound": "Cc1cc(C(=O)CCl)c(C)n1CC1COc2ccccc2O1 (stereo not given)", "className": "class 1"}
{"compound": "O=C(CN1CCN(S(=O)(=O)c2cc(Cl)ccc2Cl)CC1)c1ccc(O)c(O)c1", "className": "class 0"}
{"compound": "CSc1nnc(NC(=O)c2nc(S(=O)(=O)Cc3ccc(C)cc3)ncc2Cl)s1", "className": "class 1"}
{"compound": "Nc1ccccc1SC(C[N+](=O)[O-])c1ccccc1 (stereo not given)", "className": "class 0"}
{"compound": "O=C(/C(=C/c1cccc(Cl)c1)c1nc2ccccc2[nH]1)c1ccccc1", "className": "class 1"}
{"compound": "CCOC(=O)c1c(NC(=O)CCl)sc(C(=O)N(CC)CC)c1C", "className": "class 0"}
{"compound": "CCc1ccc2c(c1)C1(NN=C(c3ccccc3)S1)C(=O)N2 (stereo not given)", "className": "class 1"}
{"compound": "Oc1c(CN2CCN(c3ccc(F)cc3)CC2)cc(Cl)c2cccnc12", "className": "class 1"}
{"compound": "CCCOC1CCCN(Cc2cn(C)nc2-c2ccccc2F)C1 (stereo not given)", "className": "class 0"}
{"compound": "COc1cc(NS(=O)(=O)c2ccc3ccccc3c2)c2ncccc2c1", "className": "class 1"}
